compounds and their reported MIC
- System: Klebsiella pneumoniae
- measurement.protocol: Antibacterial activity against Klebsiella pneumoniae ATCC 4352 incubated at 37 degC for 20 hrs by agar dilution method
- Type: functional
- measurement.setup: ATCC 4352, 20 h

compound | MIC (µg/mL)
C=CCc1ccc(O)c(-c2ccc(O)c(CC=C)c2)c1 | 32
C=CCc1cc(CN2CCC(N3CCCC(N)C3)CC2)c(O)c(-c2ccc(O)c(CC=C)c2)c1 (centres undefined) | 16
NC[C@H]1O[C@H](O[C@H]2[C@H](O)[C@@H](O[C@H]3O[C@H](CO)[C@@H](O)[C@H](N)[C@H]3O)[C@H](N)C[C@@H]2N)[C@H](N)C[C@@H]1O | 1
C=CCc1cc(CN2CCC(N3CCC(N)CC3)CC2)c(O)c(-c2ccc(O)c(CC=C)c2)c1 | 8
